experimental.protocol: The drug is tested on WLS-350 corresponding to human gut metagenome with ENA study accession number: PRJEB37062 and ENA sample accession number: ERS12561789 for biotransformation under anaerobic condition. The drug concentrations were measured over 9 timepoints collected between 0 and 24 hours of incubation by liquid-chromatography-coupled mass spectrometry (LC–MS); also: call rule not given here
measurement.conditions: 2 µM
assay.readout: Bacterial Biotransformation

Worked cases, answers included:
Cc1nc(-c2ccc(OCC(C)C)c(C#N)c2)sc1C(=O)O = Compound metabolized
NC12CC3CC(CC(C3)C1)C2 = Compound NOT metabolized
CC(C(=O)O)c1ccc2c(c1)Cc1cccnc1O2 (centres undefined) = Compound metabolized
COc1ccc2c3c1O[C@H]1C[C@@H](O)C=C[C@@]31CCN(C)C2 = Compound metabolized
C#C[C@]1(O)CC[C@H]2[C@@H]3CCC4=CC(=O)CC[C@@H]4[C@H]3CC[C@@]21CC = Compound metabolized

### Prompt Consider the molecule CN(C)CCC=C1c2ccccc2C=Cc2ccccc21 and give its measured Bacterial Biotransformation.
### Response Compound metabolized

### Prompt Let us now turn to CCCCCCOC(=O)/N=C(/N)c1ccc(NCc2nc3cc(C(=O)N(CCC(=O)OCC)c4ccccn4)ccc3n2C)cc1.CS(=O)(=O)O [DABIGATRAN ETEXILATE MESYLATE]
### Response Compound NOT metabolized

### Prompt Let us now turn to O=C(Nc1ccccc1)OCC(CN1CCCCC1)OC(=O)Nc1ccccc1 (centres undefined)
### Response Compound metabolized

### Prompt Let us now turn to CS(=O)(=O)O.OC(CCN1CCCCC1)(c1ccccc1)c1ccccc1 [PRIDINOL METHANESULFONATE]
### Response Compound NOT metabolized

----------
experimental.protocol: The drug is tested on Z-011 corresponding to mouse gut metagenome with ENA study accession number: PRJEB37062 and ENA sample accession number: ERS12561811 for biotransformation under anaerobic condition. The drug concentrations were measured over 9 timepoints collected between 0 and 24 hours of incubation by liquid-chromatography-coupled mass spectrometry (LC–MS)
measurement.conditions: 2 µM
assay.readout: Bacterial Biotransformation

C#C[C@]1(O)CC[C@H]2[C@@H]3CCC4=CC(=O)CC[C@@H]4[C@H]3CC[C@@]21CC = Compound metabolized
CC(=O)CC(c1ccccc1)c1c(O)c2ccccc2oc1=O (configuration not stated) = Compound NOT metabolized
CN(C)C(=O)C(CCN1CCC(O)(c2ccc(Cl)cc2)CC1)(c1ccccc1)c1ccccc1 [LOPERAMIDE] = Compound NOT metabolized
Cc1ccc(S(=O)(=O)NC(=O)NN2CCCCCC2)cc1 [TOLAZAMIDE] = Compound NOT metabolized
CC(C)OC(=O)C(C)(C)Oc1ccc(C(=O)c2ccc(Cl)cc2)cc1 [FENOFIBRATE] = Compound metabolized
CC(C)NCC(O)COc1ccc(COCCOC(C)C)cc1.CC(C)NCC(O)COc1ccc(COCCOC(C)C)cc1.O=C(O)/C=C/C(=O)O (configuration not stated) [BISOPROLOL FUMARATE] = Compound metabolized
Br.CN(C)CCCC1(c2ccc(F)cc2)OCc2cc(C#N)ccc21 (configuration not stated) [CITALOPRAM HYDROBROMIDE] = Compound metabolized
COc1cc2nc(N3CCN(C(=O)c4ccco4)CC3)nc(N)c2cc1OC = Compound NOT metabolized

### Prompt Consider the compound COc1c2occc2cc2ccc(=O)oc12 and give its measured Bacterial Biotransformation.
### Response Compound NOT metabolized

### Prompt Let us now turn to C=CCc1ccccc1OCC(O)CNC(C)C (configuration not stated)
### Response Compound NOT metabolized

### Prompt Let us now turn to CCC(=O)NCC[C@@H]1CCc2ccc3c(c21)CCO3
### Response Compound NOT metabolized

### Prompt Let us now turn to CC(C)(C#N)c1cc(Cn2cncn2)cc(C(C)(C)C#N)c1
### Response Compound NOT metabolized

### Prompt Let us now turn to CCC(COC(=O)c1cc(OC)c(OC)c(OC)c1)(c1ccccc1)N(C)C.O=C(O)/C=C\C(=O)O (configuration not stated)
### Response Compound NOT metabolized

### Prompt Let us now turn to CC[C@H](C)C(=O)O[C@H]1C[C@@H](C)C=C2C=C[C@H](C)[C@H](CC[C@@H]3C[C@@H](O)CC(=O)O3)[C@H]21
### Response Compound metabolized

### Prompt Let us now turn to CN(C)CCC=C1c2ccccc2C=Cc2ccccc21
### Response Compound NOT metabolized

### Prompt Let us now turn to CC(C)(C)NC[C@H](O)COc1ccccc1C1CCCC1.CC(C)(C)NC[C@H](O)COc1ccccc1C1CCCC1.O=S(=O)(O)O [PENBUTOLOL SULFATE]
### Response Compound NOT metabolized

### Prompt Let us now turn to CC(C)(C(=O)O)c1ccc(C(O)CCCN2CCC(C(O)(c3ccccc3)c3ccccc3)CC2)cc1 (configuration not stated) [FEXOFENADINE]
### Response Compound NOT metabolized

----------
measurement.conditions: human gut metagenome, 24 h, 2 µM
Where a SMILES comes first, the peptide text is derived from it. [ ]: non-standard residue; d: D form. pGlu = O=C1CC[C@@H](C(=O)O)N1; Thz = O=C(O)[C@@H]1CSCN1
assay.readout: Bacterial Biotransformation

Worked cases, answers included:
CN1C(=O)CC(C)(c2ccccc2)C1=O (stereo not drawn) [METHSUXIMIDE] = Compound metabolized
COc1ccc2c(c1OC)C(=O)O[C@@H]2[C@H]1c2c(cc3c(c2OC)OCO3)CCN1C [NOSCAPINE] = Compound metabolized
O=C1CC[C@@H](C(=O)N2CSC[C@H]2C(=O)O)N1 [PIDOTIMOD] ([pGlu]-[Thz]-OH) = Compound NOT metabolized
COC(=O)C1=C(C)NC(C)=C(C(=O)OC(C)C)C1c1cccc2nonc12 (stereo not drawn) [ISRADIPINE] = Compound metabolized
CCCC(=O)Nc1ccc(OCC(O)CNC(C)C)c(C(C)=O)c1 (stereo not drawn) [ACEBUTOLOL] = Compound metabolized
CCN(CC)CCNC(=O)c1cc(Cl)c(N)cc1OC [METOCLOPRAMIDE] = Compound NOT metabolized

### Prompt Consider the compound OC(CCN1CCCCC1)(c1ccccc1)C1CC2C=CC1C2 (stereo not drawn) [BIPERIDEN] and give its measured Bacterial Biotransformation.
### Response Compound NOT metabolized

### Prompt Let us now turn to CN1CCC(=C2c3ccccc3CCc3cccnc32)CC1.O=C(O)/C=C\C(=O)O.O=C(O)/C=C\C(=O)O [AZATADINE MALEATE]
### Response Compound NOT metabolized

----------
experimental.protocol: The drug is tested on WLS-039 corresponding to human gut metagenome with ENA study accession number: PRJEB37062 and ENA sample accession number: ERS12561746 for biotransformation under anaerobic condition. The drug concentrations were measured over 9 timepoints collected between 0 and 24 hours of incubation by liquid-chromatography-coupled mass spectrometry (LC–MS)
measurement.conditions: 2 µM
assay.readout: Bacterial Biotransformation

Worked cases, answers included:
CC(=O)O[C@]1(C(C)=O)CC[C@H]2[C@@H]3C=C(Cl)C4=CC(=O)[C@@H]5C[C@@H]5[C@]4(C)[C@H]3CC[C@@]21C [CYPROTERONE ACETATE] = Compound metabolized
COc1ccc2c3c1O[C@H]1C[C@@H](O)C=C[C@@]31CCN(C)C2 = Compound NOT metabolized
O=c1n(CCCN2CCN(c3cccc(Cl)c3)CC2)nc2ccccn12 = Compound NOT metabolized
CC(C)c1c(C(=O)Nc2ccccc2)c(-c2ccccc2)c(-c2ccc(F)cc2)n1CC[C@@H](O)C[C@@H](O)CC(=O)O = Compound metabolized
CC(=O)CC(c1ccccc1)c1c(O)c2ccccc2oc1=O (centres undefined) = Compound NOT metabolized
C=CCc1ccccc1OCC(O)CNC(C)C (centres undefined) = Compound NOT metabolized
CCOC(=O)[C@H](CCc1ccccc1)N[C@@H](C)C(=O)N1[C@H](C(=O)O)C[C@H]2CCCC[C@@H]21 = Compound metabolized
Cc1ccccc1N1C(=O)c2cc(S(N)(=O)=O)c(Cl)cc2NC1C (centres undefined) = Compound NOT metabolized

### Prompt Consider the compound Br.CN(C)CCCC1(c2ccc(F)cc2)OCc2cc(C#N)ccc21 (centres undefined) [CITALOPRAM HYDROBROMIDE] and give its measured Bacterial Biotransformation.
### Response Compound NOT metabolized

### Prompt Let us now turn to Cc1ccc(/C(=C\CN2CCCC2)c2ccccn2)cc1
### Response Compound NOT metabolized

### Prompt Let us now turn to CCc1nc(N)nc(N)c1-c1ccc(Cl)cc1
### Response Compound NOT metabolized

### Prompt Let us now turn to CC(C)NCC(O)COc1ccc(CCOCC2CC2)cc1 (centres undefined)
### Response Compound NOT metabolized

### Prompt Let us now turn to COc1ccc2[nH]c([S+]([O-])Cc3ncc(C)c(OC)c3C)nc2c1 (centres undefined)
### Response Compound metabolized

### Prompt Let us now turn to COC(=O)Nc1nc2ccc(C(=O)c3ccccc3)cc2[nH]1
### Response Compound metabolized
